Below: a set of entries, each annotated with reported melting point.

# compound, assay.readout, meas.value
measured = [
    ("COc1ccc(C2CC(=O)C(=C3SC4NCCNC4S3)C(=O)C2)cc1 (stereo not drawn)", "melting point", "160 to 162 °C"),
    ("CC(C)CNC(=O)c1sc(Oc2ccc3c(c2)OCO3)c2c1CCc1cnn(C)c1-2", "melting point", "155 to 157 °C"),
]

Challenge: So what does the record say about melting point for Clc1cc(C2CO2)cc(OCc2ccccc2)c1OCc1ccccc1 (stereo not drawn) ?
Response given: 154 to 159 °C

* * *

Below: a set of entries, each annotated with reported melting point.

Challenge: So what does the record say about melting point for `CSc1nc2c(Cl)cc(Cl)c([N+](=O)[O-])c2s1` ?
Response given: 130 to 132 °C

* * *

Below: a set of entries, each annotated with reported melting point.

Use these answered entries as a reference point.
# compound, melting point
measured = [
    ("Cc1cc2nc(C)c(=O)[nH]c2cc1C", "306 to 308 °C"),
    ("CCC1(c2cccc(OCc3ccccc3)c2)COC(C)(C)O1 (stereo not given)", "51 to 53 °C"),
    ("O=C(NN=Cc1ccc(Br)cc1)c1[nH]c2ccccc2c1Cc1ccccc1", "227 to 229 °C"),
    ("CC(c1ccc2ncccc2c1)n1nnc2ccc(-c3ccc(C(N)=O)c(Cl)c3)nc21 (stereo not given)", "140 to 143 °C"),
]

Now for a further compound.
Challenge: So what does the record say about melting point for `CCCc1ccc(-c2cc(F)c(-c3ccc(CCC)s3)c(F)c2)cc1` ?
Response given: 64 °C

* * *

assay.readout: melting point

# compound, meas.value
records = [
    ("Cc1ccc(S(=O)(=O)N2CCC[C@H]2C(=O)N[C@@H](Cc2ccc(OCCCN(C)Cc3ccccc3)cc2)C(=O)O)cc1", "87 to 90 °C"),
]

Challenge: So what does the record say about melting point for `OCc1cc2cc3c(cc2nc1I)OCCO3` ?
Response given: 178 to 180 °C

Challenge: Follow-up item: COc1cc(CCCC2SC(=O)NC2=O)ccc1OCc1csc(CCc2ccccc2)n1 (stereo not drawn)
Response given: 104 to 105 °C

Challenge: Follow-up item: `CSc1cc2c(cc1C(F)(F)F)N(C(=O)Nc1cccc(C(=O)NCCN3CCCCC3)c1)CC2`
Response given: 79 to 81 °C

Challenge: Follow-up item: `Cc1cc(Br)c(Cl)c(Cl)c1N`
Response given: 66 to 68 °C

Challenge: Follow-up item: `NS(=O)(=O)c1cc(C(=O)NN(c2ccccc2)C2CCCCC2)ccc1Cl`
Response given: 216 to 217 °C

Challenge: Follow-up item: CCc1cc2c(s1)-n1c(C3CCCCC3)nnc1C(N)N=C2c1ccccc1Cl (stereo not drawn)
Response given: 175 to 176 °C

Challenge: Follow-up item: `NCCCNC(=O)CCn1cnc2c(=O)[nH]cnc21`
Response given: 172 to 175 °C

Challenge: Follow-up item: `Cc1ncc(Cn2c(CC3CCN(CCc4c(C)nc5sccn5c4=O)CC3)nc3ccccc32)o1`
Response given: 174 °C

Challenge: Follow-up item: `O=C(c1cnc(Cl)nc1C(F)(F)F)N1Cc2cccn2Cc2ccccc21`
Response given: 221 to 223 °C

Challenge: Follow-up item: CCOC(=O)CNC(=O)CC(O)CBr (stereo not drawn)
Response given: 59 to 61 °C

Challenge: Follow-up item: `Cc1cc2oc3ccccc3c(=O)c2cc1OCC(=O)O`
Response given: 225 to 227 °C

Challenge: Follow-up item: Cc1cc(C[C@@H](NC(=O)c2cccc3c2C=CCCC3)[C@@H](O)c2ccc(F)cc2)cc(OC(F)(F)C(F)F)c1 (racemic)
Response given: 175 to 176 °C

Challenge: Follow-up item: `COc1cccc2c(NCc3ccccc3C)cc(C(=O)O)nc12`
Response given: 276 to 277 °C

Challenge: Follow-up item: `CCCCCCCCCCC[C@H](CC(=O)N[C@@H](CO)CCCNC(=O)OCc1ccccc1)OCc1ccccc1`
Response given: 118 °C

Challenge: Follow-up item: `O=C(Nc1ccc(Cl)nc1)c1ccccc1`
Response given: 118 to 120 °C

Challenge: Follow-up item: `O=C(c1cc2cc3oc(=O)[nH]c3cc2o1)N1CCC(Cc2ccccc2)CC1`
Response given: 205 to 210 °C

* * *

Below: a set of entries, each annotated with reported melting point.

Use these answered entries as a reference point.
# compound, melting point
data = [
    ("O=C(CCCN1CCN(c2nc3nccc(-c4ccncc4)n3n2)CC1)c1ccc(F)cc1", "133 to 135 °C"),
    ("O=S(=O)(Nc1ccc(C(F)(F)F)nc1I)c1ccccc1", "131 °C"),
    ("OC1CSC(Oc2cccc(-c3ccnc(Cl)c3)c2)C(O)C1O (stereo not given)", "207 °C"),
    ("CNC(=O)N1N=C(c2ccc([N+](=O)[O-])cc2)c2cc(OC)c(Br)cc2CC1C (stereo not given)", "224 to 226 °C"),
    ("Clc1ccccc1Cn1ncnc1I", "98 °C"),
    ("COc1ccc(O)c(C2C(=O)Nc3cccc(Br)c32)n1 (stereo not given)", "149 to 152 °C"),
    ("Cn1ccnc1Sc1ccc(Nc2c(C#N)cnc3cc(/C=C/CN4CCOCC4)ccc23)cc1Cl", "235 to 240 °C"),
    ("O=C(OC1CCCCC1)C1Oc2ccccc2Cc2ccccc2O1", "120 to 125 °C"),
    ("CCc1ccc(S(=O)(=O)NCc2ccccc2-c2ccccc2C(=O)NCCc2ccccc2)cc1", "163 °C"),
    ("CC(C)(C)C1NN(c2ccc(N)cc2Br)C(=O)O1 (stereo not given)", "170 to 172 °C"),
]

Challenge: So what does the record say about melting point for `CCC(=O)Nc1ccccc1C(F)(F)F` ?
Response given: 86 °C

Challenge: Follow-up item: CC(C)c1ccc(N(Cc2ccc(OCc3ccccc3)cc2)C(=O)C2CCCc3ccccc32)cc1 (stereo not given)
Response given: 120 to 121 °C

Challenge: Follow-up item: NC(=Nc1ccc(-n2cccc2)c(CNC(=O)CCCCC2CCSS2)c1)c1cccs1 (stereo not given)
Response given: 156 to 158 °C

Challenge: Follow-up item: `O=C(CCCl)NCc1ccc2ccn(C3CCN(CCc4ccc(F)cc4)CC3)c2c1`
Response given: 121 to 122 °C

Challenge: Follow-up item: `COc1cc(C=CC(=O)c2ccc(N(C)C)cc2)cc(OC)c1`
Response given: 155 to 156 °C

* * *

assay.readout: melting point

Use these answered entries as a reference point.
# compound, melting point
measured = [
    ("Cc1ccccc1S(=O)(=O)NC(=O)c1ccc2c(ccn2Cc2cccc(NC(=O)OC3CCCC3)c2)c1", "188 to 190 °C"),
    ("CO/C=C1/C(=O)NC(=O)c2ccc(-n3cccc3)cc21", "272 to 273 °C"),
]

Challenge: So what does the record say about melting point for COc1cc(NCCCC(C)N2C(=O)c3ccccc3C2=O)c2nc(C)cc(C)c2c1OC (stereo unspecified) ?
Response given: 141 to 144 °C

Challenge: Follow-up item: CSCC1CCN(c2cn(-c3cccnc3)nc2Cl)C1=O (stereo unspecified)
Response given: 83 to 84 °C

Challenge: Follow-up item: `CCOC(=O)Cc1nc(-c2ccc(Cl)c(Cl)c2)oc1-c1ccoc1`
Response given: 130 to 131 °C

Challenge: Follow-up item: `OCc1cccc(Cc2c[nH]cn2)c1O`
Response given: 152 to 155 °C

* * *

Below: a set of entries, each annotated with reported melting point.

Use these answered entries as a reference point.
# compound, melting point
records = [
    ("COc1cc(Oc2cccc(C(F)(F)F)c2)nc(C(=S)Nc2ccccc2)c1", "126 to 128 °C"),
    ("CC(C)NC1=NS(=O)(=O)c2ccc(Oc3ccccc3)cc2N1", "250 to 252 °C"),
    ("C=C=CC12CCC(=O)C=C1C=CC1C3CCC(=O)C3(C)CCC12 (stereo unspecified)", "152 to 154 °C"),
    ("CN(C)c1ccc(-c2cccc3c2C2(COc4cc5c(cc42)OCO5)C(=O)N3)cn1 (stereo unspecified)", "> 245 °C"),
    ("COC(=O)CCc1cc(Cl)ccc1C(=O)CCCNC(C)=O", "46 to 48 °C"),
]

Challenge: So what does the record say about melting point for CCC1=NNC(C)=C(C(=O)NN)C1c1cccc([N+](=O)[O-])c1 (stereo unspecified) ?
Response given: 98 °C

Challenge: Follow-up item: `CCn1nc(C#N)c(Br)c1CC(C)C`
Response given: 50 to 51 °C

Challenge: Follow-up item: CCC(=O)Oc1ccc2c(c1)CCC1C2CCC2(C)C1CC(O)C2NC (stereo unspecified)
Response given: 182 to 185 °C

Challenge: Follow-up item: `CCCc1c(OCCCSc2nnc(SCC(=O)OCC)s2)ccc(C(C)=O)c1O`
Response given: 71 to 72.5 °C

Challenge: Follow-up item: `Cc1cc(C)nc(CCOc2ccc(NC(=O)N(C)C)cc2)c1`
Response given: 113 to 114 °C

Challenge: Follow-up item: `CCOC(=O)COc1ccc(NC(=O)c2sc(NC(=N)N)nc2C)cc1`
Response given: 223 °C

Source listed as a melting point compilation (Tetko et al.; mined from patent text by program, amines drawn as free bases though some values may be those of a salt).
